Source listed as ChEMBL document CHEMBL1149583.

- RUN_DESCRIPTION: Antiproliferative activity against human HFL1 cells after 96 hrs by crystal violet method
- Format: cell-based
- SETUP_CONDITIONS: read-out: ED50
Overview of reported GI50 at 96 h across a group of compounds:

- SMILES_NOTATION: "O[C@@H]1[C@@H](O)[C@H](Oc2ccc3ccc(S)cc3c2)OC[C@H]1O"
  GI50 at 96 h [µM]: 100
- SMILES_NOTATION: "CCCSc1ccc(O[C@@H]2OC[C@@H](O)[C@H](O)[C@H]2O)c2ccccc12"
  GI50 at 96 h [µM]: 30
- SMILES_NOTATION: "Oc1ccc2cc(S[C@@H]3OC[C@@H](O)[C@H](O)[C@H]3O)ccc2c1"
  GI50 at 96 h [µM]: 145
- SMILES_NOTATION: "O[C@@H]1[C@@H](O)[C@H](Oc2cc3ccccc3cc2S)OC[C@H]1O"
  GI50 at 96 h [µM]: 60
- SMILES_NOTATION: "Oc1cccc2cccc(S[C@@H]3OC[C@@H](O)[C@H](O)[C@H]3O)c12"
  GI50 at 96 h [µM]: 120
